# ASSAY_NOTES: yeast display, Sf9 membrane polyspecificity reagent, FACS + sequencing; frameworks hold sequencing errors
METRIC_NAME: polyreactivity (PSR sort gate)

• QVQLVESGGGLVQAGGSLRLSCAASGFTFKSYAMGWYRPAPGKERELVAGITRTGVSTYYADSVKGRFTISRDNAKNTVYLLMNSLKPEDTAVYYCAAGIRHIYQSYAFYKFDYWGQGTQVTVSS = high polyreactivity
• QVQLVESGGGLVQAGGSLRLSCAASGFIFRRYVMGWYRQAPGKERELVAAISRGGSTYYADSVKGRFTISRDNAKNTVYLQMNSLKPEDTAVYYCNTPGGFVGDDYDYWGQGTQVTVSS = high polyreactivity

----------
# ASSAY_NOTES: yeast display, Sf9 membrane polyspecificity reagent, FACS + sequencing; frameworks hold sequencing errors
METRIC_NAME: polyreactivity (PSR sort gate)

• QVQLVESGGGLVQAGGSLRLSCAASGSTFPYYAMGWYRQAPGKEREFVAAISYRGGSTYYADSVKGRFTISRDNAKNTVYLQMNSLKPEDTAVYYCAARSWQDRYANGYNYWGQGTQVTVSS = high polyreactivity
• QVQLVESGGGLVQAGGSLRLSCAASGSIFYYYTMGWYRQAPGKERELVAAINSGGNTYYADSVKGRFTISRDNAKNTVYLQMNSLKPEDTAVYYCAAGPLYYDYDYWGQGTQVTVSS = low polyreactivity
• QVQLVESGGGLVQAGGSLRLSCAASGFIFWYNAMGWYRQAPGKERELVADNTSGGSTTYADSVKGRFTISRDNAKNTVYLQMNSLKPEDTAVYYCAASIRRYWLHPGDYWGQGTQVTVSS = low polyreactivity
• QVQLVESGGGLVQAGGSLRLSCAASGFIFWFNALGWYRQAPGKERELVATISWSDTSTYYADSVKGRFTISRDNAKNTVYLQMNSLKPEDTAVYYCATDGRETWLPEYYWGQGTQVTVSS = low polyreactivity
• QVHLVESGGGLVQAGGSLRLSCAASGRTFWDYAMRWYRQAPGKEREFVAAINTYGGRTYYADSVKGRFTISRDNAINTVYLQMNSLKPEDTAVYYCADRTRDRAYDSWGQGTEVTVSS = high polyreactivity

----------
# ASSAY_NOTES: yeast display, Sf9 membrane polyspecificity reagent, FACS + sequencing; frameworks hold sequencing errors
METRIC_NAME: polyreactivity (PSR sort gate)

• QVQLVESGGGLVQAGGSLRLSCAASGSIFFTYAMGWYRQAPGKERELVAVISSNGARTYYADSVKGRFTISRDNAKNTVYLQMNSLKPEDPAVYYCAARSQGNYGWGQGTQVTVSS = high polyreactivity
• QVQLVESGGGLVQAGGSLRLSCAASGRTFRYYAMGWYRQAPGKERELVAAISASGGSTFYADSVKGRFTISRDNAKNTVYLLMNSLKPEDTAVYYCAAYHYSVFPYKQYDYWGQGTQVTVSS = high polyreactivity
• QVQLVESGGGLVQAGGSLRLSCAASGVTFDAYVMGWYRQAPRKERELVAGIYSGGSTYYADSVKGRFTISRDNAKNTVYLQMNSLKPEDTAVYYCARENYRFAHEPPVSRQIPYDYWGQGTQVTVSS = low polyreactivity
• QVQLVESGGGLVQAGGSLRLSCAASGITFDYYAMGWYRQAPGKERELVAAIDTGGSTNYADSVKGRFTISRDNAKNTVYLQMNSLKPEDTAVYYCAKDPHGSDFGYWGQGTQVTVSS = low polyreactivity
• QVQLVESGGGLVQAGGILRLSCAASGSTFAGYAMGWYRQAPGKERELVATITYSGASTYYADSVKGRFTISRDNAKITVYLQMNSLKPEDTAVYYCGKKASYWWGYEYWGQGTQVTVSS = low polyreactivity
• QFHLVESGGGIVQAGGSLRLSCAASGFTFAYYAMGRNRQAPGKERELVAAISSGGRTYYADSVKGRFTISRDNAQNTVYLQLNSLKPEDTAVYYCKTVPYYDALTYPFDSWGQGTQVTVSS = low polyreactivity
• QVQLVESGGGLVQAGGSLRLSCAASGSIFDYNTMGWYRQAPGKERELVAAISSGGSTYYADSVKGRFTISRDNAKNTVYLQMNSLKPEDTAVYYCAARRAGWWGFYYWGQATQVTVSS = high polyreactivity
• QVQLVESGGGLVQAGGSLRLSCADSGNTLSYYVMGWYRQAPGKERELVADITSGGTTNYADSVKGRFTISRDNAKNTVYLQMNSLKAEDTAVYYCAAGPYKRPPWLRQGGYDYWGQGTQVTVSS = low polyreactivity
• QVQLVESGGGLVQAGGSLRLSCAASGFYNTMGWYRQAPRKERELVAAISTGGMTNYADSVKGRFTISRDNAKNTVYLQMNSLKPVDTAVYYCAADGYSTVYSTYDYWGQGTQVTVSS = low polyreactivity
• QVQLVESGGGLFHAGGSLRLSCAASGSTFAYYAMGWYIQAPGKERELVAGISGSGGSTYYADSVKGRFTISRDNAKNTVYLQMKSLKPEDNAVYYCAVVQRSKRTYPWYDYWGQGTQVTVCS = low polyreactivity
• QVQLVESGGGLVQAGGSLRLSCAASGYTFDYNAMGWYRQAPGKEREFVATITASGDSTYYADSVKGRFTISRDNAKNTVYLQMNSLKPEDTAVYYCATEKRDVYFTAKYDYWGQGTQVTVSS = low polyreactivity

Where do the numbers come from? From the nanobody polyreactivity screen of Harvey et al. (2022).
